Test system: HeLa
Experiment: In vitro toxicity for cell line
Assay type: cell-based, human
Details: average ± standard error from 3 independent repeats
Where Toxicity (EC50) equals or exceeds 10 µg/mL, the correct label is fulfilled; where it does not, the label is not fulfilled.

For orientation, consider the following solved cases.
| smiles input | discrete label |
| --- | --- |
| Nc1c2c([n+](CCCCCCCCCCCC[n+]3c4c(c(N)c5ccccc53)CCCCC4)c3ccccc13)CCCCC2 | not fulfilled |
| Nc1c2c([n+](CCCCCCCCCCCC[n+]3c4c(c(N)c5ccccc53)CCCC4)c3ccccc13)CCCC2 | not fulfilled |
| Nc1c2c([n+](CCCCCCCC[n+]3c4c(c(N)c5ccccc53)CCCCCC4)c3ccccc13)CCCCCC2 | fulfilled |
| Nc1c2c([n+](CCCCCCCCCC[n+]3c4c(c(N)c5ccccc53)CCCCCC4)c3ccccc13)CCCCCC2 | fulfilled |
| Nc1c2c([n+](CCCCCC[n+]3c4c(c(N)c5ccccc53)CCCCCC4)c3ccccc13)CCCCCC2 | fulfilled |

Now let's try a different one.
Would you say Nc1c2c([n+](CCCCCCCCCCCC[n+]3c4c(c(N)c5ccccc53)CCC4)c3ccccc13)CCC2 shows Toxicity (EC50) at minimum 10 µg/mL? not fulfilled

###

Each record here notes measured MIC.
Test system: M. smegmatis mc^2 155
Test: Broth microdilution MIC (Middlebrook 7H9)
Assay type: cell-based, Mycobacterium smegmatis
The figure you give is taken to be in mg/L; do not add the unit.

| compound | MIC (mg/L) |
| --- | --- |
| Nc1c2c([n+](CCCCCCCC[n+]3c4c(c(N)c5ccccc53)CCCCCC4)c3ccccc13)CCCCCC2 [Octa-C8] | 0.19 |

Provide the reported MIC (system: M. smegmatis mc^2 155) for Nc1c2c([n+](CCCCCCCCCCCC[n+]3c4c(c(N)c5ccccc53)CCC4)c3ccccc13)CCC2 [Penta-bola] 0.10

Look up M. smegmatis mc^2 155 data: MIC of Nc1c2c([n+](CCCCCC[n+]3c4c(c(N)c5ccccc53)CCCCCC4)c3ccccc13)CCCCCC2 [Octa-C6] , then report it. 1.66

# assay system M. smegmatis mc^2 155: give MIC of Nc1c2c([n+](CCCCCCCCCCCC[n+]3c4c(c(N)c5ccccc53)CCCC4)c3ccccc13)CCCC2 [12-bis-THA Cl2] 0.28
